# Lookup of reported GI50 keyed by entry
Test system: HCT-15
Report as a plain number; the unit µM is understood.

Below, 5 compounds whose answers are already recorded.
# compound, units_text, GI50
data = [
    ("O=C1CSC(c2ccccc2O)N1c1ccc(Oc2ccc(Cl)cc2)c(Cl)c1 (stereo not drawn)", "µM", 19.5),
    ("NS(=O)(=O)c1ccc(NC(=S)NC=C2C(=O)c3ccccc3C2=O)cc1", "µM", 38.9),
    ("Cc1ccc([N+](=O)[O-])cc1S(=O)(=O)Nc1ccc(C2=NNC(c3cccs3)C2)cc1 (stereo not drawn)", "µM", 17),
    ("O=C(CC(C(=O)c1ccsc1)c1cccs1)c1ccsc1 (stereo not drawn)", "µM", 45.6),
    ("O=C1c2ccccc2C(O)(O)C1(O)C1(O)C(=O)c2ccccc2C1(O)O (stereo not drawn)", "µM", 21.8),
]

input: Reported GI50 for HCT-15, given COc1ccc2c(c1)nc1n2C(c2c(F)cccc2Cl)SC1 (stereo not drawn) ?
output: 3.03

input: # get_value(readout= GI50, system= HCT-15) for C[C@]12CC[C@H](OC(=O)Cc3ccc(N(CCCl)CCCl)cc3)CC1CC[C@@H]1C2CC[C@]2(C)NC(=O)CCC12 (stereo partly drawn)
output: 13.9

input: Observed GI50 on HCT-15 for N#Cc1c2c(c(Nc3ccc(Cl)cc3)n3c1nc1ccccc13)CCCC2 , please.
output: 25.9

input: What measured GI50 is associated with COc1cc(C=C(c2ccc(N(C)C)cc2)c2ccc(N(C)C)cc2)c2ccccc2c1OC on HCT-15?
output: 40.4

###

Tested on: OVCAR-4
Test: NCI tumour cell line growth inhibition, 48 h
Activity calls are given as the source filed them. No stated cut-off is given here; in the data, active = GI50 up to about 1.1 µM and inactive = higher.
measured_parameter: GI50

Example results:
# molecule, target_of_assay, endpoint_value
rows = [
    ("O=c1c2c(-c3ccccc3)onc2n(-c2ccccc2)c(=O)n1-c1ccccc1", "OVCAR-4", "32.8 µM (inactive)"),
    ("CCOC(=O)c1nc2cc(C(F)(F)F)ccc2nc1Oc1ccc(F)cc1", "OVCAR-4", "69.5 µM (inactive)"),
    ("O=C(O)c1ccccc1CC1Cc2ccccc2C1=O (stereo not given)", "OVCAR-4", "> 100 µM (inactive)"),
    ("Cc1ccsc1C(=O)C(CC(=O)c1cccs1)c1ccsc1 (stereo not given)", "OVCAR-4", "> 100 µM (inactive)"),
]

Now for a further molecule.
input: # GI50 lookup, item CC1=NN(C(=O)CC(=O)NC(=O)CC(=O)Nc2ccccc2F)C(=O)C1/N=N/c1ccc([N+](=O)[O-])cc1 (stereo not given)
output: 29.9 µM (inactive)

###

System: A549
Assay: NCI tumour cell line growth inhibition, 48 h
Calls of active or inactive are those of the source. Cut-off read from the data, not from the text of the source: active = GI50 up to about 1.1 µM and inactive = higher.
measured_parameter: GI50

input: Bench note: what GI50 did NC(CCC(=O)c1ccccn1)C(=O)O (stereo not given) show?
output: > 100 µM (inactive)

###

Tested on: RXF 393
Test: NCI tumour cell line growth inhibition, 48 h
Calls of active or inactive are those of the source. No stated cut-off is given here; in the data, active = GI50 up to about 1.1 µM and inactive = higher.
measured_parameter: GI50

# smiles_input, measured_parameter, endpoint_value
data = [
    ("Cc1sc(NC=C2C(=O)CC(C)(C)CC2=O)nc1-c1ccccc1", "GI50", "> 100 µM (inactive)"),
    ("CNC(=S)NN=C1NCCCN1", "GI50", "> 100 µM (inactive)"),
    ("CC(C)(C)C(=O)C(C#N)C(=O)C(C)(C)C", "GI50", "> 100 µM (inactive)"),
    ("Cc1cc(C)c(S(=O)(=O)N2CCCN(S(=O)(=O)c3c(C)cc(C)cc3C)OCCCON(S(=O)(=O)c3c(C)cc(C)cc3C)CCCN(S(=O)(=O)c3c(C)cc(C)cc3C)OCCCO2)c(C)c1", "GI50", "61.1 µM (inactive)"),
]

Please examine the following record next.
input: Which measured GI50 value corresponds to COc1ccccc1CC(=O)C(O)(C(F)(F)F)C(F)(F)F ?
output: > 100 µM (inactive)

###

System: K562
Assay: NCI tumour cell line growth inhibition, 48 h
Where a name gives a salt, the structure may show the parent alone. The source made the active and inactive calls. Cut-off read from the data, not from the text of the source: active = GI50 up to about 1.1 µM and inactive = higher.
Output constraint: value belongs to true (active), false (inactive)

Sample answers from the record:
# compound, target_of_assay, label_value
measured = [
    ("CC(C)(C)C(=O)C(C#N)C(=O)C(C)(C)C", "K562", "false"),
    ("COc1ccc2cc3[n+](cc2c1OC)CCc1cc2c(cc1-3)OCO2 [BERBERINE SULFATE]", "K562", "false"),
    ("O=C(CC(C(=O)c1ccsc1)c1cccs1)c1ccsc1 (stereo unspecified)", "K562", "false"),
]

input: Please indicate how the test categorized O=C1/C(=C/c2ccccc2Cl)COc2ccc(Br)cc21 .
output: false

input: Could you check what this test reported for CCc1ccc(/C=C\c2cc(OC)c(OC)c(OC)c2)cc1 ?
output: true

input: What call does the record list for Cc1noc(C)c1/N=N/c1ccc2nonc2c1N ?
output: false

###

# maps each entry to its GI50
Test system: OVCAR-4
Test: NCI tumour cell line growth inhibition, 48 h
Calls of active or inactive are those of the source. Cut-off read from the data, not from the text of the source: active = GI50 up to about 1.1 µM and inactive = higher.

Example entries begin here.
# compound, measured_parameter, endpoint_value
measured = [
    ("Cc1ccnc(NC(=S)Nc2ccc([N+](=O)[O-])cc2)c1", "GI50", "> 100 µM (inactive)"),
    ("O=C1CC2CCCC23CC2(CCN13)OCCO2 (stereo not given)", "GI50", "> 100 µM (inactive)"),
    ("O=C(O)\\C=C/C=C/C=C/C=C/C(=O)O", "GI50", "> 100 µM (inactive)"),
    ("CO/C(=N/N1CC1C(F)(F)F)c1ccncc1 (stereo not given)", "GI50", "> 100 µM (inactive)"),
    ("Cc1ccc(N(C=O)c2c([N+](=O)[O-])cc([N+](=O)[O-])c3c2=[N+]([O-])CN=3)cc1", "GI50", "30.9 µM (inactive)"),
    ("OC1COC(n2c3ccc(Br)cc3c3ccc4c5ccccc5[nH]c4c32)C(O)C1O (stereo not given)", "GI50", "13.5 µM (inactive)"),
    ("O=C1CCC2(c3ccccc3)Nc3ccncc3N12 (stereo not given)", "GI50", "> 10 µM (inactive)"),
    ("Nc1ccc(-c2ccc(Nc3cc(S(=O)(=O)O)c(N)c4c3C(=O)c3ccccc3C4=O)cc2)c(S(=O)(=O)O)c1", "GI50", "> 100 µM (inactive)"),
    ("CCCCCCCC(=O)OC[n+]1ccc(-c2c(COC(=O)NC(C)C)c(COC(=O)NC(C)C)c3n2CCC3)cc1", "GI50", "38.6 µM (inactive)"),
]

input: Please report the recorded GI50 for COC(=O)C[C@H]1CCC2(OCCO2)[C@]1(C)C(=O)OC .
output: > 100 µM (inactive)

###

Tested on: NCI-H23
Experiment: NCI tumour cell line growth inhibition, 48 h
Activity calls are given as the source filed them. No stated cut-off is given here; in the data, active = GI50 up to about 1.1 µM and inactive = higher.
Reported GI50 values for the following molecules.

Reference set (2 entries):
# molecule, GI50
records = [
    ("C[C@]12CC[C@@H]3c4cc(OCC(F)(F)F)c(O)cc4CC[C@H]3[C@@H]1CC[C@@H]2O", "4.75 µM (inactive)"),
    ("COC(=O)[C@@]12OC[C@]34C([C@@H](O)C1O)[C@@]1(C)CC(=O)C(OC(=O)/C=C(/c5ccccc5)C(F)(F)F)=C(C)C1C[C@H]3OC(=O)[C@H](O)[C@H]42 (stereo partly drawn)", "4.56 µM (inactive)"),
]

Attention now shifts to the item below.
input: # GI50 lookup, item CC1CC[C@@]2(OC1)OC1C[C@H]3[C@@H]4CCC5CC(O)CC[C@]5(C)[C@H]4C/C(=N\N(C)C)[C@]3(C)C1[C@@H]2C (stereo partly drawn)
output: 20.3 µM (inactive)

###

System: COLO 205
Test: NCI tumour cell line growth inhibition, 48 h
Active and inactive are the calls of the source. No stated cut-off is given here; in the data, active = GI50 up to about 1.1 µM and inactive = higher.
Please reply with one of these outcomes: active, inactive

Below, 3 molecules whose answers are already recorded.
# molecule, target_of_assay, label_value
measured = [
    ("CN(C)CCSc1nccc(-c2ccc(-c3ccnc(SCCN(C)C)n3)s2)n1", "COLO 205", "inactive"),
    ("COc1ccc(/C=C2\\CN(C)CC3=C2OC(N)=C(C#N)C3c2ccc(OC)cc2)cc1 (stereo unspecified)", "COLO 205", "inactive"),
    ("CCSC1=CC(Cc2ccc(OC)cc2)N(C(=O)OC)C1 (stereo unspecified)", "COLO 205", "inactive"),
]

input: Would you mind telling me which call this test gave O=C1CSC(c2ccccc2O)N1c1ccc(Oc2ccc(Cl)cc2)c(Cl)c1 (stereo unspecified) ?
output: inactive

input: # lookup: test call for C[C@]12CC[C@H](OC(=O)Cc3ccc(N(CCCl)CCCl)cc3)CC1CC[C@@H]1C2CC[C@]2(C)NC(=O)CCC12 (stereo partly specified)
output: inactive

input: For C=CCCCCCCCCCCCC1CCC(CC)N1 (stereo unspecified) , which call appears in the assay record?
output: inactive
